# target-or-system: NS3/NS4 complexes (Hepatitis C virus genotype 1a)
# Sequence (P27958 1027-1657): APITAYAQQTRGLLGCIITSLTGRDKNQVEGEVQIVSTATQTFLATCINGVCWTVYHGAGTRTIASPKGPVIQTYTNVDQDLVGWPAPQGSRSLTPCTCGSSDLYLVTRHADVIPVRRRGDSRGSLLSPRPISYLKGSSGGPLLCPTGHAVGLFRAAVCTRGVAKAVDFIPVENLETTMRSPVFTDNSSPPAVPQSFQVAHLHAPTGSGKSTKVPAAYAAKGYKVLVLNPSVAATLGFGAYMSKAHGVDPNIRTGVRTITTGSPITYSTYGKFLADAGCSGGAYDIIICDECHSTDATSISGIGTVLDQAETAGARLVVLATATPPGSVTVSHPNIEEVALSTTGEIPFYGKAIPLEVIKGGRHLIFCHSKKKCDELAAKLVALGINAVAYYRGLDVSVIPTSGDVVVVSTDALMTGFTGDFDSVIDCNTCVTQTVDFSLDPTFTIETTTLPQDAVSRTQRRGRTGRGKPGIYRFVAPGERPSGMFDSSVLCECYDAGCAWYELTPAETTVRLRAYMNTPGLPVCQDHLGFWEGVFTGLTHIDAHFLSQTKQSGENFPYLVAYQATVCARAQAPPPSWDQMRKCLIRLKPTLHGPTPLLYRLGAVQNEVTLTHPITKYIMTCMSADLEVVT
# Sequence (P27958 1658-1711): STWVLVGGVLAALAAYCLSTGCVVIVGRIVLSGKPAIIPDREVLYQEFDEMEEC
# procedure-text: NS3/NS4 inhibition activity (IC50)
# Type: biochemical
# experimental-context: Table 2, read-out: IC50
parameter-measured: IC50

## Input Write down IC50 measured for item COc1ccc2c(O[C@@H]3C[C@H]4C(=O)N[C@]5(C(=O)NS(=O)(=O)C6CC6)C[C@H]5/C=C\CCCCC[C@H](Nc5cccc(C(F)(F)F)c5)C(=O)N4C3)cc(-c3nc(C(C)C)cs3)nc2c1C [Compound 369]
## Output < 10 nM

## Input Write down IC50 measured for item COc1ccc2c(O[C@@H]3C[C@H]4C(=O)N[C@]5(C(=O)NS(=O)(=O)C6(C)CC6)C[C@H]5/C=C\CCCCC[C@H](Nc5ccc(F)cc5)C(=O)N4C3)cc(-c3nc(C(C)C)cs3)nc2c1C [Compound 362]
## Output < 10 nM

## Input Write down IC50 measured for item COc1ccc2c(O[C@@H]3C[C@H]4C(=O)N[C@]5(C(=O)NS(=O)(=O)C6(C)CC6)C[C@H]5/C=C\CCCCC[C@H](Nc5cccc(OC(F)(F)F)c5)C(=O)N4C3)cc(-c3ccccc3)nc2c1 [Compound 392]
## Output < 10 nM

* * *

# System: hepatitis C replicon
# procedure-text: hepatitis C replicon EC50
# Type: cell-based
# experimental-context: Hepatitis C virus; Table 3; hepatitis C replicon; read-out: EC50
pEC50: −log10 of the molar value.
parameter-measured: pEC50

## Input Write down pEC50 measured for item `CCn1c(O[C@@H]2C[C@H]3C(=O)N[C@]4(C(=O)NS(=O)(=O)C5(C)CC5)C[C@H]4CCCCCCC[C@H](NC(=O)OC(C)(C)C)C(=O)N3C2)nc2ccccc21`
## Output > 8.00

## Input Write down pEC50 measured for item `CC(C)(C)OC(=O)N[C@H]1CCCCC/C=C\[C@@H]2C[C@@]2(C(=O)NOc2ccccc2)NC(=O)[C@@H]2C[C@@H](Oc3nc4ccccc4o3)CN2C1=O`
## Output < 7.00

## Input Write down pEC50 measured for item `CC1(S(=O)(=O)NC(=O)[C@@]23C[C@H]2/C=C\CCCCC[C@H](Nc2cccc(OC(F)(F)F)c2)C(=O)N2C[C@H](OC(=O)N4Cc5cccc(F)c5C4)C[C@H]2C(=O)N3)CC1`
## Output > 8.00

## Input Write down pEC50 measured for item `CC1(S(=O)(=O)NC(=O)[C@@]23C[C@H]2/C=C\CCCCC[C@H](Nc2cccc(F)c2)C(=O)N2C[C@H](OC(=O)N4Cc5cccc(F)c5C4)C[C@H]2C(=O)N3)CC1`
## Output 7.00 to 8.00

## Input Write down pEC50 measured for item `CC(C)n1c(O[C@@H]2C[C@H]3C(=O)N[C@]4(C(=O)NS(=O)(=O)N(C)C)C[C@H]4/C=C\CCCCC[C@H](NC(=O)OC(C)(C)C)C(=O)N3C2)nc2c(F)cccc21`
## Output > 8.00

## Input Write down pEC50 measured for item `COc1ccc2nc(O[C@@H]3C[C@H]4C(=O)N[C@]5(C(=O)NS(=O)(=O)C6(C)CC6)C[C@H]5/C=C\CCCCC[C@H](NC(=O)OC(C)(C)C)C(=O)N4C3)sc2c1`
## Output 7.00 to 8.00

## Input Write down pEC50 measured for item `CC1(S(=O)(=O)NC(=O)[C@@]23C[C@H]2/C=C\CCCCC[C@H](Nc2ccc(F)c(F)c2)C(=O)N2C[C@H](OC(=O)N4Cc5cccc(F)c5C4)C[C@H]2C(=O)N3)CC1`
## Output 7.00 to 8.00

meta.source: patent US8048862B2
